target: SARS-CoV-2 3CL-Pro (Severe acute respiratory syndrome coronavirus 2, UniProt P0DTD1); construct: SARS-CoV-2 main protease (3CL-Pro), also termed M-Pro; test: biochemical
# note: boundary value 800 nM maps to no (0); IC50 below it maps to yes (1)

>>> group_label("C[N+]1(C)CCC(OC(=O)C(c2ccccc2)c2ccccc2)CC1 [compound 90]")
"no (0)"
>>> group_label("O=c1c2ccccc2sn1-c1ccccc1 [compound 14, 2-phenyl-1,2-benzothiazol-3-one]")
"yes (1)"
>>> group_label("CC(=O)[O-].[Hg+][c]1ccccc1 [compound 42, acetyloxy(phenyl)mercury]")
"yes (1)"
>>> group_label("C[C@@H]1O[C@@H](Oc2c(-c3cc(O)c(O)c(O)c3)oc3cc(O)cc(O)c3c2=O)[C@H](O)[C@H](O)[C@H]1O [compound 5]")
"no (0)"
>>> group_label("O=C(O)C(S)C(S)C(=O)O (centres unmarked) [compound 82, 2,3-bis(sulfanyl)butanedioic acid]")
"no (0)"
>>> group_label("O=C(O)c1ccccc1-c1c2cc(Br)c(=O)cc-2oc2[c]([Hg][OH])c(O)c(Br)cc12 [compound 62, hydrate]")
"yes (1)"
>>> group_label("COc1ccc2[nH]c([S+]([O-])Cc3ncc(C)c(OC)c3C)nc2n1 (racemic) [compound 9]")
"no (0)"
